Test system: IGROV1 ovarian
Assay: NCI-60 one-dose screen, 48 h
Details: 10 µM unless noted
Compounds without any hit were thinned out: in the full panel of roughly 83,000, 20% have a hit. Calls of active or inactive are those of the source. How the source made its calls: active means growth percent below 10; inactive means the rest.
API: response.call in 1.0 (active), 0.0 (inactive)

Some solved entries appear below for comparison.
Prompt line: What was the test verdict on `CCSc1nc2ccccc2o1` ?
Response line: 0.0

Prompt line: What was the test verdict on `CCc1cnc2ccccc2c1/C=C/c1ccc(N(C)C)cc1` ?
Response line: 0.0

Prompt line: What was the test verdict on CC(C)=CCCC(C)C1=C(O)C(=O)C(C)=CC1=O (stereo not given) ?
Response line: 1.0

Prompt line: What was the test verdict on `NC(=S)Nc1ccc2c(c1)Cc1ccccc1-2` ?
Response line: 0.0

Prompt line: What was the test verdict on CCN(CC)CCNC(Cc1ccccc1)c1ccc(OCc2ccccc2)cc1 (stereo not given) ?
Response line: 0.0

---
Prompt line: What was the test verdict on `S=C=Nc1ccc(N2CCOCC2)cc1` ?
Response line: 0.0

Prompt line: What was the test verdict on `Oc1ccc(Cl)cc1Cc1cc(Cl)ccc1O` ?
Response line: 0.0

Prompt line: What was the test verdict on CC(CSc1n[nH]c(=S)s1)c1ccccc1 (stereo not given) ?
Response line: 0.0

Prompt line: What was the test verdict on `O=[N+]([O-])c1ccc(C2N(Cc3ccc(Cl)cc3)CCN2Cc2ccc(Cl)cc2)cc1` ?
Response line: 0.0

Prompt line: What was the test verdict on CC(/C=N/NC(N)=S)Cc1ccc(C(C)C)cc1 (stereo not given) ?
Response line: 0.0
